These measurements were taken from patent EP0309789A1.

Consider the following molecules; for each one, report its MIC.
Test system: Pseudomonas aeruginosa
Test: In vitro antimicrobial activity, microplate dilution procedure (MIC)
Assay type: cell-based
Conditions: read-out: PA MIC
Respond with the bare value in µg/mL.

QUERY: Form entry - test system: Pseudomonas aeruginosa; read-out: MIC; molecule: CCn1cc(C(=O)O)c(=O)c2cc(F)c(-c3cc(C)nc(C)c3)cc21 [R, reference compound]
RESULT: 4

QUERY: And then Cc1cc(-c2cc3c(cc2F)c(=O)c(C(=O)O)cn3C2CC2)cc(C)n1 [Compound A] , what is it?
RESULT: 2

QUERY: And then Cc1cc(-c2c(F)cc3c(=O)c(C(=O)O)cn(C4CC4)c3c2F)cc(C)n1 [C] , what is it?
RESULT: 4

QUERY: And then O=C(O)c1cn(C2CC2)c2cc(N3CCNCC3)c(F)cc2c1=O [Q, reference compound] , what is it?
RESULT: 0.125

QUERY: And then Cc1cc(-c2c(F)c(F)c3c(=O)c(C(=O)O)cn(C4CC4)c3c2F)cc(C)n1 [B] , what is it?
RESULT: 8

QUERY: And then CCn1cc(C(=O)O)c(=O)c2ccc(-c3cc(C)nc(C)c3)cc21 [P, reference compound] , what is it?
RESULT: 32
